# assay explanation: Metabolic stability in human liver microsomes assessed as intrinsic clearance
# Assay type: ADME, Microsome
# run conditions: read-out: CLH

item smiles | CLint scaled
CCc1ccc(NC(=O)Nc2c[nH]c3ccccc23)cc1 | 8.58 L/h/kg
O=C(Nc1ccc(C2CCC(F)(F)CC2)cc1)Nc1c[nH]c2ccc(Cl)cc12 | 1.71 L/h/kg
O=C(Nc1ccc(C2CCC(F)(F)CC2)cc1)Nc1c[nH]c2ccc(F)cc12 | 1.3 L/h/kg
CCc1ccc(NC(=O)Nc2c[nH]c3ccc(F)cc23)cc1 | 3.18 L/h/kg
O=C(Nc1ccc(C(F)(F)F)cc1)Nc1c[nH]c2ccc(Cl)cc12 | 0.384 L/h/kg
O=C(Nc1ccc(C(F)(F)F)cc1)Nc1c[nH]c2ccc(F)cc12 | 2.46 L/h/kg
CC(C)(C)c1ccc(NC(=O)Nc2c[nH]c3ccc(F)cc23)cc1 | 4.58 L/h/kg
